# System Tested: HLA-A*02:01
# Assay Summary: IEDB peptide-MHC binding, purified MHC/competitive/fluorescence; bounds were set here for any values at or beyond the usual limits of such assays
# Condition Info: source organism: Zaire ebolavirus
Parameter Measured: IC50 (µM)
The reply should be a number in µM, with the unit left off.

{"columns": ["Sequence Entry", "System Tested", "IC50, µM"],
 "data": [
  ["LFLPKLVVG", "HLA-A*02:01", 35.3]
]}

Please fill in: IC50 reported for `ISFQQTNAM` = 6.39

The recorded IC50 for `VISNSVAQA` is 5.79

Notebook: `IQYPTAWQS` , IC50 read as 30.6

----------
# System Tested: HLA-A*26:01
# Assay Summary: IEDB peptide-MHC binding, purified MHC/competitive/fluorescence; filed as Kd, often an IC50 or EC50 that approximates it; bounds were set here for any values at or beyond the usual limits of such assays
# Condition Info: source organism: Burkholderia pseudomallei K96243
Parameter Measured: Kd

Per the record, `LMRRFRFTV` has Kd of ≥ 20 µM

----------
# System Tested: HLA-A*24:02
# Assay Summary: IEDB peptide-MHC binding, purified MHC/direct/fluorescence; filed as Kd, often an IC50 or EC50 that approximates it; bounds were set here for any values at or beyond the usual limits of such assays
# Condition Info: source organism: Influenza A virus (A/equine/New York/1/1999(H3N8))
Parameter Measured: Kd

// Kd lookup, sequence = `RELVRKTRF` , result: ≥ 20 µM

----------
Listed below: Kd values for each entry.
# System Tested: HLA-A*03:01
# Assay Summary: IEDB peptide-MHC binding, purified MHC/competitive/radioactivity; filed as Kd, often an IC50 or EC50 that approximates it; bounds were set here for any values at or beyond the usual limits of such assays
# Condition Info: source organism: Dengue virus 1 Brazil/97-11/1997

Field: example entries. Status: answers known.
{"columns": ["Sequence Entry", "System Tested", "Kd"],
 "data": [
  ["VIDPRRCLK", "HLA-A*03:01", "49.3 nM"],
  ["VVRVQRPAK", "HLA-A*03:01", "126 nM"]
]}

Turning now to a further sequence:
# Kd of `ILARWSSFKK` = 1.39 nM

----------
# System Tested: HLA-B*46:01
# Assay Summary: IEDB peptide-MHC binding, purified MHC/direct/fluorescence; filed as Kd, often an IC50 or EC50 that approximates it; bounds were set here for any values at or beyond the usual limits of such assays
# Condition Info: source organism: Vibrio cholerae
pKd: −log10 of the molar value.
Parameter Measured: pKd

For record `IVKQGRDAL` the listed pKd is ≤ 4.70

----------
# System Tested: HLA-A*02:11
# Assay Summary: IEDB peptide-MHC binding, purified MHC/competitive/fluorescence; filed as Kd, often an IC50 or EC50 that approximates it; bounds were set here for any values at or beyond the usual limits of such assays
# Condition Info: source organism: Bacillus cereus ATCC 4342
Parameter Measured: pKd
API: returns pKd as number; meaning -log10 of concentration in mol/L.

// pKd value for `GLFWGGIWY` : 6.08

----------
# System Tested: HLA-A*26:02
# Assay Summary: IEDB peptide-MHC binding, purified MHC/competitive/fluorescence; filed as Kd, often an IC50 or EC50 that approximates it; bounds were set here for any values at or beyond the usual limits of such assays
# Condition Info: source organism: Mycobacterium tuberculosis variant bovis BCG str. Pasteur 1173P2
pKd: −log10 of the molar value.
Parameter Measured: pKd

Short answer for `KVMVICYAY` : pKd was ≤ 4.70
